Target: T1, CXCR2 (human), P25025
T1 chain: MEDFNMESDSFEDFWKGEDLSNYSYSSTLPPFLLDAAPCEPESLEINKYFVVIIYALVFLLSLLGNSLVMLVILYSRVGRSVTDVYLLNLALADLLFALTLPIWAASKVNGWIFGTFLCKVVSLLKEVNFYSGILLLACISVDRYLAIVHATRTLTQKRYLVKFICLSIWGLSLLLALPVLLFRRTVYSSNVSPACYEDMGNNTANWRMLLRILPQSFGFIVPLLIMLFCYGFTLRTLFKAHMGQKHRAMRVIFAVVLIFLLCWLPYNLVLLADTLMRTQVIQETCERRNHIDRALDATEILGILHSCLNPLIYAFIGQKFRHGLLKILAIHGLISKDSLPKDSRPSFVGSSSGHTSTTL
Assay: biotin-labeled peptide at 10 µM on CHO transformants, 125I-streptavidin
No end group written: not given here.
measurement kind: Kd

Lab book: Kd of CLDPKQKWIQC (not fully specified (N-terminus); cysteine pairing not given here) [N-terminal biotin conjugate of the sequence n'-…-c'] noted as > 10 µM
